Reported GI50 values for the following compounds.
- System: A549
- assay-notes: NCI tumour cell line growth inhibition, 48 h
Active and inactive are the calls of the source. Cut-off read from the data, not from the text of the source: active = GI50 up to about 1.1 µM and inactive = higher.

Example compounds with recorded GI50:
>>> df
                                   compound  test_target       value_reported
0  S=C(N/N=C(/c1ccccc1)c1ccccn1)Nc1ccc(Cl)cc1         A549   1.97 µM (inactive)
1  O=C(NCCCCCN1CCC2(CCCCC2)CC1)C(C1CCCCC1)C1CCCCC1         A549   5.94 µM (inactive)
2  Oc1[nH]c(Nc2cccc(CC(F)(F)F)c2)nc2ncnc1-2         A549  > 100 µM (inactive)
3  CCCCN(C)CC(C(C)=O)C(c1ccccc1)c1c(O)c2ccccc2oc1=O (configuration not stated)         A549  > 100 µM (inactive)
4         O=C(O)/C(Cl)=C(\Cl)C(=O)Nc1ccccc1         A549  > 100 µM (inactive)

Query :: What does the data say about its GI50? Entry: Cn1c2ccccc2c2c3c(=O)[nH][nH]c(=O)c3c3c4ccccc4n(C)c3c21
Result :: > 100 µM (inactive)

Query :: What does the data say about its GI50? Entry: CN(C)CN(C)c1nc(N(C)C)nc(N(C)CN(C)C)n1
Result :: > 100 µM (inactive)

Query :: What does the data say about its GI50? Entry: O=C(Nc1ccccc1-c1nn(CO)c(=S)n(CO)c1=O)C(F)(F)F
Result :: > 100 µM (inactive)

Query :: What does the data say about its GI50? Entry: COC/C=C\COC
Result :: > 100 µM (inactive)

Query :: What does the data say about its GI50? Entry: CC(=O)/C=c1\[nH]/c(=C\C=C\c2ccccc2)c(=O)n1/C=C1\C(=O)Oc2ccccc2C1=O
Result :: > 100 µM (inactive)

Query :: What does the data say about its GI50? Entry: COc1cc(/C=C2\CCc3cc(OC)c(OC)cc3C2=O)cc(OC)c1
Result :: 5.2 µM (inactive)

Query :: What does the data say about its GI50? Entry: Cc1cc([N+](=O)[O-])ccc1/N=N/C(=O)NNc1ccc([N+](=O)[O-])cc1C
Result :: 15.8 µM (inactive)

Query :: What does the data say about its GI50? Entry: OCC1CC2C=CCC(C2)C1 (configuration not stated)
Result :: > 100 µM (inactive)

Query :: What does the data say about its GI50? Entry: COc1ccc2c3c(c(C(=O)O)oc13)C(CCC(=O)O)CC2 (configuration not stated)
Result :: > 100 µM (inactive)

Query :: What does the data say about its GI50? Entry: CC(Oc1ccc(Cl)cc1Cl)C(=O)NN1C(=O)CC(=O)NC1=S (configuration not stated)
Result :: > 100 µM (inactive)

Query :: What does the data say about its GI50? Entry: O=C1CSC(/C=C/c2ccccc2)N1c1ccc(-n2c(-c3ccccc3)nc3ccccc3c2=O)cc1 (configuration not stated)
Result :: > 100 µM (inactive)

Query :: What does the data say about its GI50? Entry: C/C=C/C/C=C/CCC(=O)C1OC1C(N)=O (configuration not stated)
Result :: 20.7 µM (inactive)

Query :: What does the data say about its GI50? Entry: CCCCOCCOC1=C(Cl)C(=O)c2c(O)ccc(O)c2C1=O
Result :: 2.11 µM (inactive)
